# Study Target: FIX wt (Homo sapiens)
# Construct: made in house; host or cells: Escherichia coli
# Sequence (P00740 29-461 limits assumed): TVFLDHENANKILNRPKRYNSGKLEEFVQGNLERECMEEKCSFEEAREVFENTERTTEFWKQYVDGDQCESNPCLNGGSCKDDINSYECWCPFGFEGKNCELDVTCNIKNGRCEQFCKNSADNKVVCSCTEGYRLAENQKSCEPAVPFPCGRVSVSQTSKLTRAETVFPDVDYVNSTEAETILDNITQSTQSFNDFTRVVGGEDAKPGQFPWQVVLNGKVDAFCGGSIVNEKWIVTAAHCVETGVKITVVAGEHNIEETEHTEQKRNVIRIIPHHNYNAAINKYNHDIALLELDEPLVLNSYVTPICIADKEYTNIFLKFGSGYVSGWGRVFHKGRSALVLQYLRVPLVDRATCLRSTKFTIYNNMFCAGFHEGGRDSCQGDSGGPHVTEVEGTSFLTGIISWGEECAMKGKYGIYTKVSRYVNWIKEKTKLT
# Procedure Text: SAM5 binding of zymogenic FIX wt to immobilized FVIIIa-derived peptide
# Measurement Parameters: no additive; peptide immobilized on carboxymethyl-dextran chip, FIX wt 10-250 nM in mobile phase, 40 μL/min, 4 min association, 4 min dissociation, one-to-one two-state model; 20 mM HEPES pH 7.5, 150 mM NaCl, 5 mM CaCl2
Ends that are not written are not given here.
Recorded Endpoint: Kd (nM)
// units = nM; emit number, no label

Kindly note: FIX wt (Homo sapiens), SVDQRGNQ [558‐loop, SVDQRGNQ] , Kd value reported: 172

----------
# Study Target: FIXa wt (Homo sapiens)
# Construct: made in house; host or cells: Escherichia coli
# Sequence (P00740 227-461 limits assumed): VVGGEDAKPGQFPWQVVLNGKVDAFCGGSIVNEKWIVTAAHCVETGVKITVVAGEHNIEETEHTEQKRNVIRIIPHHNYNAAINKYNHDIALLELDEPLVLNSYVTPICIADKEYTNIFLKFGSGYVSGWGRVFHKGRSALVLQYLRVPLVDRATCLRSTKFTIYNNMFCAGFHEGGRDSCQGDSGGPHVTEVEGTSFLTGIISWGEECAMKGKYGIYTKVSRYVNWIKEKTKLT
# Sequence (P00740 47-191 partner limits assumed): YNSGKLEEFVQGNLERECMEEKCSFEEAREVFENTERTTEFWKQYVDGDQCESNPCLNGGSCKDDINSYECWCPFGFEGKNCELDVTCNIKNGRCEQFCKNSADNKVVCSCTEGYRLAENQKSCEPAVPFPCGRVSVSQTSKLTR
# Procedure Text: SAM5 binding of activated FIXa wt to immobilized FVIIIa-derived peptide
# Measurement Parameters: no additive, FIXa wt as analyte 10-250 nM, pH 7.5, 5 mM CaCl2
Ends that are not written are not given here.
Recorded Endpoint: Kd (nM)
Your answer should be a plain number; it is taken to be in nM.

Measured Kd, SVDQRGNQ [558‐loop, SVDQRGNQ] : 457

----------
# Study Target: FIXa R170L (Homo sapiens, UniProt P00740, R384L)
# Construct: made in house; host or cells: Escherichia coli
# Sequence (P00740 227-461 R384L, one chain of several): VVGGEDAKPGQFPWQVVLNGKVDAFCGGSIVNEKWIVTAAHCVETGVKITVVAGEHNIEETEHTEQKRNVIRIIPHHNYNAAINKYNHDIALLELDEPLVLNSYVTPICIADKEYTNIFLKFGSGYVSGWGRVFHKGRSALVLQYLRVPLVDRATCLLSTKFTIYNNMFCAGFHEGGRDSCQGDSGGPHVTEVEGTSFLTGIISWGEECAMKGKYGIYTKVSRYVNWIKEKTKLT
# Procedure Text: SAM5 binding of activated FIXa R170L (Padua) to immobilized FVIIIa-derived peptide
# Measurement Parameters: no additive, FIXa R170L as analyte 10-250 nM, pH 7.5, 5 mM CaCl2
Ends that are not written are not given here.
Recorded Endpoint: pKd
Field pKd (float): negative decimal logarithm of the concentration in molar.

Noted for SVDQRGNQ [558‐loop, SVDQRGNQ] : its pKd reads 6.43

Reference for the values: paper PMC6668378
